- Method: Pharmacokinetic properties in mice
- Type: in vivo
- Conditions used: female, Balb/c; mouse plasma, IV 1 mg/kg
- Description: The tested compound was dissolved in 10% DMSO/45% PEG400/45% water, vortexed and sonicated to prepare a clear solution with the corresponding concentration, which was filtered through a millipore filter for use. […] The drug concentration was analyzed by the LC-MS/MS method, and the pharmacokinetic parameters were calculated by the Phoenix WinNonlin software (Pharsight, USA).
Readout name: AUC(0-t)

Smiles data: Cc1cc(Nc2ncnn3ccc(CN4CCC(N)CC4)c23)ccc1Oc1ccn2ncnc2c1
Readout name: AUC(0-t)
Endpoint value: 1.52 µM·h

* * *

- Method: Pharmacokinetic properties in rats
- Assay type: in vivo
- Conditions used: male, SD; rat plasma, IV 5 mg/kg

Compound: Cc1cc(Nc2ncnn3ccc(CN4CCC(N)CC4)c23)ccc1Oc1ccn2ncnc2c1 [Example 4]
AUC(0-inf), µM·h: 6.95
